# Procedure Text: chemical genetic growth profiling, strain panel (AID 1159580);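 further: tested at 20 µM; growth read once vehicle control cultures reached saturation at 30 °C; 1 = growth at the plate median or of vehicle wells; lower values mean less growth of the strain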
# Test Parameters: S. cerevisiae deletion strains, growth OD, locus YML032C, strain rad52, stronger effect = lower value
In all, about 5,500 compounds went through this assay and about 2,000 (36%) were called active. Roughly 18% stayed inconclusive and do not appear here. The list shows a part of the results.
Consider the following compounds; for each one, report its normalized growth.
Lab note: jot the number down without any unit.

What value of normalized growth has been reported for the following compound? `COc1ccccc1N1CCN(CCCNc2cc(=O)n(C)c(=O)n2C)CC1`
1.01

Input CC[C@H]1CN2CCC1C[C@@H]2[C@@H](O)c1ccnc2ccc(OC)cc12 (stereo partly specified)
1.01

Input `COc1c(O)cc2c(c1O)[C@H]1O[C@H](CO)[C@@H](O)[C@H](O)[C@@H]1OC2=O`
0.999

Input C[C@@H]1CC[C@@]23CCC4(C)[C@@](C=CC5[C@@]6(C)CC[C@H](O)C(C)(C)C6CC[C@]54C)(OC2=O)C3[C@H]1C (stereo partly specified)
1.02

Input NS(=O)(=O)c1cc2c(cc1C(F)(F)F)NC(Cc1ccccc1)NS2(=O)=O (stereo unspecified)
0.983

Input `Nc1ccc(S(=O)(=O)Nc2ncccn2)cc1`
1.01
